Known melting point of a selection of compounds

N#Cc1ccc(N2CCOCC2)cc1	80 to 81 °C
Cn1cccc1CCNCC(O)COc1cccc2[nH]ccc12 (stereo unspecified)	105 to 106 °C
CC(=O)OCC1OC(n2c(Cl)c(C=O)c3cc(Cl)c(Cl)cc32)C(O)C1O (stereo unspecified)	154 to 155 °C
Clc1cc2ccccc2cn1	< 50 °C
CCOC(=O)c1cccc(-c2ccc(Cl)c3cc(Cc4ccc(F)c(F)c4)sc23)c1	124 to 125 °C
Cc1ccc(C)c(CNc2cccc(S(=O)(=O)O)c2)c1	> 275 °C
CCOC(=O)c1[nH]cc2c1NC1=C(C(=O)CNC1)C2c1ccc(Sc2nc3ccc(OC)cc3[nH]2)o1 (stereo unspecified)	248 °C
Clc1cnc2c(COCn3cncn3)c(Cl)ccc2c1	156 to 158 °C

Enquiry: Please report the measured melting point for `C=CCNc1nc(SC)nc2cc(OC)c(OC)cc12`
Return: 122 to 124 °C

----------
Recorded Metric: melting point

COc1ccc(C(=O)Nc2ccccc2C(O)C2CCCCN2)cc1 (stereo unspecified)	158 to 160 °C
O[C@@H]1CCc2ccc(F)cc2C1	59 to 61 °C
CSc1nc(NCc2ccc(-c3ccsc3)cc2)n2ncc(C(C)C)c2n1	141 to 143 °C
CC(/C=C/c1cscc1-c1ccc2c(c1)C(C)(C)CCC2(C)C)=C\C(=O)O	192 to 193 °C
c1cc(C2=NOC(C3CC3)(N3CCCC3)C2)ccn1 (stereo unspecified)	80 to 85 °C

For the next question, use this compound.
Enquiry: Please report the measured melting point for `N#Cc1ccc(NN)cc1`
Return: 84 to 87 °C

----------
Known melting point of a selection of molecules

Check out these entries, answers already filled in.
CCCCCCCCCCCCCCc1ccc(C(=O)OCC)[nH]1	60 to 63 °C
CN1CCN(c2ccc(Nc3nccc(-c4c[nH]nc4-c4ccc(Cl)cc4)n3)cc2)CC1	282 to 284 °C
CNc1ccc2c(c1)N1CCCN=C1S2	184 °C
CCc1c(-c2ccc(OC)cc2)c2c(C(=O)N(C)CCN(C)C)c(C(=O)O)c3cc(OC)cc1n32	221 to 223 °C
CC(C)N1C(=O)c2ccccc2N(C(=O)c2cc(Oc3ccc(C(F)(F)F)cc3Cl)ccc2[N+](=O)[O-])S1(=O)=O	125 to 128 °C
CCCCCCCNC(=O)Nc1ccccc1C(=O)NC1CCN(Cc2c(C(C)C)nc(C(C)C)c(COC)c2-c2ccc(F)cc2)CC1	123 °C
C[C@]1(CN2CCN(c3ccc(OC(F)(F)F)cc3)CC2)Cn2cc([N+](=O)[O-])nc2O1	129 to 130 °C
Cc1cc2c(c3c1C(c1ccc(C(C)C)cc1)CO3)CCC2 (stereo not given)	77 to 78 °C

For the next question, use this molecule.
Enquiry: Please report the measured melting point for `Nc1cc(-c2cccnc2)c[nH]c1=O`
Return: 280 to 290 °C

----------
Recorded Metric: melting point

Check out these entries, answers already filled in.
COc1c(Br)ccc2oc(C=O)c(C)c12	81 to 82 °C
FC(F)(F)c1cccc(N2CCC(N=Cc3ccc[nH]3)=N2)c1	144 to 145 °C
COC(=O)[C@H](Cc1ccc(NC(=O)c2c(Cl)cccc2Cl)cc1)NC(=O)C1(Cc2ccc(OC)cc2)CCCCC1	85 to 87 °C
c1ccc2c(c1)nc1n2CCCC1	104 to 106 °C
O=C1NCc2c1cc1ccc3c(c1c2-c1ccc(F)cc1)OCC3	302 to 305 °C
CN(c1cccc2cc(-c3ncc(CCC(N)=O)s3)[nH]c12)S(=O)(=O)c1cccs1	246 to 247 °C

Enquiry: Please report the measured melting point for `Nc1ccc(Oc2ccc(C(=O)c3ccc(C#Cc4ccccc4)cc3)cc2)cc1`
Return: 151 to 153 °C

Enquiry: Please report the measured melting point for `O=[N+]([O-])c1ccc2c(c1)C(=NO)CCO2`
Return: 173 to 178 °C

Enquiry: Please report the measured melting point for `CCOC(=O)c1ccsc1NC(=O)NCCN1CCN(c2ccccc2)CC1`
Return: 117 to 120 °C

Enquiry: Please report the measured melting point for `CC(C)[C@]1(CCc2ccc(O)cc2)CC(O)=C(Sc2sc3ccccc3c2C(C)(C)C)C(=O)O1`
Return: 207 °C

Enquiry: Please report the measured melting point for `CSC(=S)NN=Cc1nc(-c2ccccc2)[nH]c1C`
Return: 180 to 185 °C

Enquiry: Please report the measured melting point for `Oc1ccc2c(c1)C=CC=CS2`
Return: 165 to 166 °C

Enquiry: Please report the measured melting point for `CN(COC(=O)Cc1ccccc1)C(=O)OC(C)(C)C`
Return: 96 to 98 °C

Enquiry: Please report the measured melting point for `CCOC(=O)c1cc(=O)c(Sc2ccc(OC)cc2)co1`
Return: 90 to 92 °C

Enquiry: Please report the measured melting point for O=[N+]([O-])c1ccc(C2OCc3ccc(CO)cc3CO2)cc1 (stereo unspecified)
Return: 146 °C

Enquiry: Please report the measured melting point for `COc1cc2nc(N3CCN(C(=O)C4CC=CC4)CC3)nc(N)c2cc1OC`
Return: 216 to 218 °C
